Recorded values, source patent US20250188153A1.

- assaySystem: hMPV F protein of hMPV TN/93-32 (genotype B) (human metapneumovirus)
- assayInfo: cell-based or functional assay
measurementName: IC50, plaque-reduction neutralization of hMPV TN/93-32

- MPV483 (antibody, V domains shown) VH: EVQLVQSGAELKKPGSSVKVSCKASGDTFSNYAISWVRQAPGQGLEWMGGIIPIYNTANYAQKFQGRVTLTADESTSTAYMELSSLRSEDTAVYYCARDVRNNWSVLRGARYYYYGMDVWGQGTTVTVSS VL: DIVMTQTPFSLSASVGDRVTVTCRASQDISNSLAWFQQKPGKAPKSLIYAASSLQSGVPTRFSGGGSGTDFTLTISSLQPEDFATFYCLQYDSFPPTFGGGTKVEI: 0.11 µg/mL
- MPV485 (antibody, V domains shown) V domain 1: EVQLQEPGPGLVKPSETLSLTCTVSGGSISSTNSFWGWVRQPPGKGLEWIGSIYYSGTTYYNSSLKSRVTISVDTSKNQFSLRLSSVTAADTAVYYCARQGLTSSWYDGSGLDVWG V domain 2: SYELTQPPSVSVSPGQTASITCSGDKLGNKYACWYQQRPGQSPVLVIYQDTKRPSGIPERFSGSNSGNTATLTISGTQAMDEADYYCQAWDSNTVVFGGGTKLTVL: 2.6 µg/mL
- MPV456 (antibody, V domains shown) VH: QVQLQESGPGVVKPSGTLSLTCGVSGGSISSSYWWSWVRQPPGKGLEWIGEIYHSGSTNYNPSLKRRVTISVDKSKNQFSLKVTSVTAADTAVYYCARGPIQYYDILTEERVGYCDYWGQGTLVTVSS VL: TLSASVGDRVTITCRASQSISSWLAWFQQKPGKAPKLLIYKTSSLESGVPSRFSGSGSGTEFTLTISSLQPDDFATYYCQEYNSYSRTFGQGTKVEIK: 0.81 µg/mL
- MPV481 (antibody, V domains shown) VH: EVQLVQSGGGLVKPGGSLRLSCAASGLPFNNAWMNWVRQAPGKGLEWVGRIKSKIDGGTTEYAAPVKGRFTISRDDSENTLYLQMNSLRTEDTAVYYCTTEYYALLSGNYSDCWGQGTLVTVSS VL: DIVMTQSPFSLSLSPGERATLSCRASQSIKRAYLGWYQQKPGQAPRLLIYGASNRATGIPDRFSGSGSGTDFTLTISRLEPEDFAVYYCQQYGDSPGGSFGQGTKLEIR: 0.26 µg/mL
- MPV464 (antibody, V domains shown) VH: QVQLQESGPGLVKPSQTLSLTCTVSGGSVRGGGDYWSWIRRPPGKGLEWIGHIYNSGTTFYNPSLKSRVTISIDTSKNQFSLKLRSVTAADTAVYYCGRVGSRATGLPDWIDPWGQGTLVTVSS VL: SYELTQPPSVSVSPGQTATITCSGTNLGAKYSCWYQQKPGQSPVLVIFQDNKRASGIPARFSASTSGDTATLTISGTQVMDEADYFCQAWDSRTAVFGGGTTLTVL: 0.4 µg/mL
